tested on: K562 (chronic myelogenous leukaemia); assay: Effect of compounds on tumor cell lines (assay of Latham et al.), K562; assay type: cell-based; settings: K562 cells, 96 hours after treatment, 1 μM to 100 μM; read-out: K 562 potency (IC50)
result.type: IC50

IC50 on K562 (chronic myelogenous leukaemia) for O=C(O)c1ccc(C=C(SCc2ccc(Cl)cc2)C(=O)c2ccc(C(=O)O)cc2)cc1 [Example 323] is > 100 µM

IC50 on K562 (chronic myelogenous leukaemia) for Cc1ccc(CSC(=Cc2cc([N+](=O)[O-])ccc2F)C(=O)c2ccc(Cl)cc2)cc1 [Example 276] is 1 to 10 µM

IC50 on K562 (chronic myelogenous leukaemia) for Cc1ccc(CSC(=Cc2c[nH]c3ccc(Cl)cc23)C(=O)c2ccc(Cl)cc2)cc1 [Example 296] is 1 to 10 µM

IC50 on K562 (chronic myelogenous leukaemia) for CCN(CC)CCNC(=O)c1c(C)[nH]c(/C=C(/SCc2ccc(Br)cc2)C(=O)c2ccc(Br)cc2)c1C [Example 162] is 1 to 10 µM

IC50 on K562 (chronic myelogenous leukaemia) for Cc1ccsc1C=C(SCc1ccc(Cl)cc1)C(=O)c1ccc(Br)cc1 [Example 205] is 25 to 50 µM

IC50 on K562 (chronic myelogenous leukaemia) for COc1cc(OC)c(C=C(SCc2ccc(Cl)cc2)C(=O)c2ccc(Br)cc2)c(OC)c1 [Example 193] is 10 to 25 µM

IC50 on K562 (chronic myelogenous leukaemia) for N#Cc1ccc(C(=O)C(=Cc2ccc([N+](=O)[O-])c(O)c2)SCc2ccc(Br)cc2)cc1 [Example 157] is 1 to 10 µM

The measured values listed here are drawn from patent US8808702B2.
